# Species on record: Homo sapiens
# testMethodNotes: Concentration of test compound required to inhibit 50% LTB4-induced calcium mobilization in intact human PMNs
# Type: functional
This section presents compounds with their documented IC50 values.

compound: COc1ccc(CCCCCCCCOc2ccc(CSCc3ccc(C(=O)O)cc3)nc2/C=C/C(=O)O)cc1
IC50 (nM): 175
--
compound: O=C(O)/C=C/c1nc(CSCc2cccc(C(=O)O)c2)ccc1OCCCCCCCCc1ccccc1
IC50 (nM): 320
--
compound: COc1ccc(CCCCOc2ccc(CSCc3cccc(C(=O)O)c3)nc2CCC(=O)O)cc1
IC50 (nM): 1900
--
compound: COc1ccc(CCCCCCCCOc2ccc(C[S+]([O-])Cc3ccc(C(=O)O)cc3)nc2/C=C/C(=O)O)cc1 (centres undefined)
IC50 (nM): 7000

Every entry's value here was drawn from ChEMBL document CHEMBL1127355.
